- Experiment summary: Volume of distribution at steady state in C57BL/6 mouse at 1 mg/kg, iv
- Format: ADME, organism-based
- Experimental context: in vivo, read-out: Vdss

{"Given smiles": "C=CC(=O)N1C[C@@H]2C[C@H]1CN2S(=O)(=O)c1ccc(N2CC(CN3CCC([C@@](CN4CCC4)(c4cccc(F)c4)[C@H]4CCC[C@@H]4NC(=O)OC)CC3)(OC)C2)cc1", "Vd, L/kg": 0.33}

###

- Experiment summary: AUC (0 to infinity) in C57BL/6 mouse at 1 mg/kg, iv
- Assay type: ADME, organism-based
- Set-up: time infinity, route intravenous, dose 1 mg/kg
- Experimental context: in vivo

{"Given smiles": "C=CC(=O)N1C[C@@H]2C[C@H]1CN2S(=O)(=O)c1ccc(N2CC(CN3CCC([C@@](CN4CCC4)(c4cccc(F)c4)[C@H]4CCC[C@@H]4NC(=O)OC)CC3)(OC)C2)cc1", "Unit of measurement": "ng·h/mL", "AUC(0-inf)": 17600}

###

Quick reference for concentration at 1 h among some compounds
- Experiment summary: Plasma concentration in mouse at 25 mg/kg, po measured after 1 hr
- Type: ADME, organism-based

{"Given smiles": "COC(=O)N[C@H]1CCC[C@@H]1[C@](CN1CCC1)(c1cccc(F)c1)C1CCN(CC2(OC)CN(c3ccc(S(=O)(=O)C4CC4)cc3)C2)CC1", "concentration at 1 h (ng/mL)": 8260}
{"Given smiles": "COC(=O)N[C@H]1CCC[C@@H]1[C@](CN1CCC1)(c1cccc(F)c1)C1CCN(CC2CN(c3ccc(S(=O)(=O)C4CC4)cc3)C2)CC1", "concentration at 1 h (ng/mL)": 624}

###

- Subject of test: Menin (Homo sapiens)
- Sequence (O00255 whole entry): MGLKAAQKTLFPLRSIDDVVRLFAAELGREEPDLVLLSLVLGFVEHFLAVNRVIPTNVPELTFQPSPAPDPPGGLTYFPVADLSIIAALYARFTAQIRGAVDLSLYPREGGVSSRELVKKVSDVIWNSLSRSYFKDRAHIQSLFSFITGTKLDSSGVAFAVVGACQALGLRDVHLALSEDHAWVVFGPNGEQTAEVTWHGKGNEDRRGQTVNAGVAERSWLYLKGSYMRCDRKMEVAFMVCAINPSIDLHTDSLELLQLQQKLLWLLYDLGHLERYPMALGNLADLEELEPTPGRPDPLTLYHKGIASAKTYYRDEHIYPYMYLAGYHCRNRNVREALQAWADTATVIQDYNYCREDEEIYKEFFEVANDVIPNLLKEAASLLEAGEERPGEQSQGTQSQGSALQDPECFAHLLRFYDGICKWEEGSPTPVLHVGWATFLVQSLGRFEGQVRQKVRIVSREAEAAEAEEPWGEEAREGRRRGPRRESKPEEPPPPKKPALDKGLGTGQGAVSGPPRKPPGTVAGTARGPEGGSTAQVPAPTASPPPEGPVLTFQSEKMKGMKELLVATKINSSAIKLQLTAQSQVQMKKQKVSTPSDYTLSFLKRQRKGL
pIC50: −log10 of the molar value.
Measured property: pIC50

{"Given smiles": "C=CC(=O)N1CCC[C@H](S(=O)(=O)c2ccc(N3CC(CN4CCC([C@@](CN5CCC5)(c5cccc(F)c5)[C@H]5CCC[C@@H]5NC(=O)OC)CC4)(OC)C3)cc2)C1", "Subject of test": "Menin (Homo sapiens)", "Reported measurement": 8.52}
{"Given smiles": "C=CC(=O)N1CCC(S(=O)(=O)c2ccc(N3CC(CN4CCC([C@@](CN5CCC5)(c5cccc(F)c5)[C@H]5CCC[C@@H]5NC(=O)OC)CC4)(OC)C3)cc2)CC1", "Subject of test": "Menin (Homo sapiens)", "Reported measurement": 8.42}
{"Given smiles": "C=CC(=O)N1CCC[C@@H](S(=O)(=O)c2ccc(N3CC(CN4CCC([C@@](CN5CCC5)(c5cccc(F)c5)[C@H]5CCC[C@@H]5NC(=O)OC)CC4)(OC)C3)cc2)C1", "Subject of test": "Menin (Homo sapiens)", "Reported measurement": 8.43}

###

Quick reference for concentration at 3 h among some compounds
- Experiment summary: Plasma concentration in mouse at 25 mg/kg, po measured after 3 hrs
- Type: ADME, organism-based
Measured property: concentration at 3 h (ng/mL)

{"Given smiles": "COC(=O)N[C@H]1CCC[C@@H]1[C@](CN1CCC1)(c1cccc(F)c1)C1CCN(CC2CN(c3ccc(S(=O)(=O)C4CC4)cc3)C2)CC1", "Reported measurement": 735}
{"Given smiles": "COC(=O)N[C@H]1CCC[C@@H]1[C@](CN1CCC1)(c1cccc(F)c1)C1CCN(CC2(OC)CN(c3ccc(S(=O)(=O)C4CC4)cc3)C2)CC1", "Reported measurement": 5750}

###

- System: RS4-11
- Experiment summary: Anti-proliferative activity against human RS4-11 cells harboring MLL/AF4 fusion protein assessed as cell growth inhibition measured after 4 days by Cell Titre Glo Luminescent Cell viability assay
- Format: functional, cell-based
- Experimental context: RS4-11, 96 h
pIC50: −log10 of the molar value.
Measured property: pIC50

{"Given smiles": "C=CC(=O)N1C[C@@H]2C[C@H]1CN2S(=O)(=O)c1ccc(N2CC(CN3CCC([C@@](CN4CCC4)(c4cccc(F)c4)[C@H]4CCC[C@@H]4NC(=O)OC)CC3)(OC)C2)cc1", "Subject of test": "RS4-11", "Reported measurement": 6.00}

###

- Experiment summary: Tmax in C57BL/6 mouse at 5 mg/kg, po
- Format: ADME, organism-based
- Experimental context: in vivo

{"Given smiles": "C=CC(=O)N1C[C@@H]2C[C@H]1CN2S(=O)(=O)c1ccc(N2CC(CN3CCC([C@@](CN4CCC4)(c4cccc(F)c4)[C@H]4CCC[C@@H]4NC(=O)OC)CC3)(OC)C2)cc1", "Unit of measurement": "h", "Tmax": 2}

###

- Subject of test: Menin (Homo sapiens)
- Experiment summary: Binding affinity to recombinant human menin protein assessed as covalent complex formation incubated for 10 mins by LC/MS analysis
- Parameters: concentration or dose not given beside the values
Quick reference for Activity among some molecules

{"Given smiles": "C=CC(=O)N1CC(S(=O)(=O)c2ccc(N3CC(CN4CCC([C@@](CN5CCC5)(c5cccc(F)c5)[C@H]5CCC[C@@H]5NC(=O)OC)CC4)(OC)C3)cc2)C1", "Activity (%)": 24.1}
{"Given smiles": "C=CC(=O)N1CCC[C@@H](S(=O)(=O)c2ccc(N3CC(CN4CCC([C@@](CN5CCC5)(c5cccc(F)c5)[C@H]5CCC[C@@H]5NC(=O)OC)CC4)(OC)C3)cc2)C1", "Activity (%)": 9.8}
{"Given smiles": "C=CC(=O)N1C[C@H]2C[C@@H]1CN2S(=O)(=O)c1ccc(N2CC(CN3CCC([C@@](CN4CCC4)(c4cccc(F)c4)[C@H]4CCC[C@@H]4NC(=O)OC)CC3)(OC)C2)cc1", "Activity (%)": 0}
{"Given smiles": "C=CC(=O)N1C[C@@H]2C[C@H]1CN2S(=O)(=O)c1ccc(N2CC(CN3CCC([C@@](CN4CCC4)(c4cccc(F)c4)[C@H]4CCC[C@@H]4NC(=O)OC)CC3)(OC)C2)cc1", "Activity (%)": 27}
{"Given smiles": "C=CC(=O)N1CCC[C@H](S(=O)(=O)c2ccc(N3CC(CN4CCC([C@@](CN5CCC5)(c5cccc(F)c5)[C@H]5CCC[C@@H]5NC(=O)OC)CC4)(OC)C3)cc2)C1", "Activity (%)": 8.8}
{"Given smiles": "C=CC(=O)N1CCC(S(=O)(=O)c2ccc(N3CC(CN4CCC([C@@](CN5CCC5)(c5cccc(F)c5)[C@H]5CCC[C@@H]5NC(=O)OC)CC4)(OC)C3)cc2)CC1", "Activity (%)": 0}
{"Given smiles": "COC(=O)N[C@H]1CCC[C@@H]1[C@](CN1CCC1)(c1cccc(F)c1)C1CCN(CC2(OC)CN(c3ccc(S(=O)(=O)C4CN(C(=O)/C=C/CN(C)C)C4)cc3)C2)CC1", "Activity (%)": 36.9}

###

- Subject of test: Menin (Homo sapiens)
- Experiment summary: Binding affinity to recombinant human menin protein assessed as covalent complex formation incubated for 30 mins by LC/MS analysis
- Parameters: concentration or dose not given beside the values

{"Given smiles": "C=CC(=O)N1CCC[C@@H](S(=O)(=O)c2ccc(N3CC(CN4CCC([C@@](CN5CCC5)(c5cccc(F)c5)[C@H]5CCC[C@@H]5NC(=O)OC)CC4)(OC)C3)cc2)C1", "Unit of measurement": "%", "Activity": 22.6}
{"Given smiles": "COC(=O)N[C@H]1CCC[C@@H]1[C@](CN1CCC1)(c1cccc(F)c1)C1CCN(CC2(OC)CN(c3ccc(S(=O)(=O)C4CN(C(=O)/C=C/CN(C)C)C4)cc3)C2)CC1", "Unit of measurement": "%", "Activity": 83.4}
{"Given smiles": "C=CC(=O)N1C[C@H]2C[C@@H]1CN2S(=O)(=O)c1ccc(N2CC(CN3CCC([C@@](CN4CCC4)(c4cccc(F)c4)[C@H]4CCC[C@@H]4NC(=O)OC)CC3)(OC)C2)cc1", "Unit of measurement": "%", "Activity": 0}
{"Given smiles": "C=CC(=O)N1CC(S(=O)(=O)c2ccc(N3CC(CN4CCC([C@@](CN5CCC5)(c5cccc(F)c5)[C@H]5CCC[C@@H]5NC(=O)OC)CC4)(OC)C3)cc2)C1", "Unit of measurement": "%", "Activity": 40.9}
{"Given smiles": "C=CC(=O)N1CCC[C@H](S(=O)(=O)c2ccc(N3CC(CN4CCC([C@@](CN5CCC5)(c5cccc(F)c5)[C@H]5CCC[C@@H]5NC(=O)OC)CC4)(OC)C3)cc2)C1", "Unit of measurement": "%", "Activity": 27.9}
{"Given smiles": "C=CC(=O)N1CCC(S(=O)(=O)c2ccc(N3CC(CN4CCC([C@@](CN5CCC5)(c5cccc(F)c5)[C@H]5CCC[C@@H]5NC(=O)OC)CC4)(OC)C3)cc2)CC1", "Unit of measurement": "%", "Activity": 0}
{"Given smiles": "C=CC(=O)N1C[C@@H]2C[C@H]1CN2S(=O)(=O)c1ccc(N2CC(CN3CCC([C@@](CN4CCC4)(c4cccc(F)c4)[C@H]4CCC[C@@H]4NC(=O)OC)CC3)(OC)C2)cc1", "Unit of measurement": "%", "Activity": 59}
